Target: Peroxisome proliferator-activated receptor gamma (Homo sapiens)
Assay: enhancers of SRC-1 binding to PPARgamma – biochemical, primary screen (AID 631);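 further: 0% = DMSO and 100% = reference agonist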
Details: PPARgamma-SRC-1 coactivator recruitment biochemical assay; at 8 µM; stronger effect = higher value
The campaign covered roughly 200,000 compounds. About 810 (0.41%) were called active. This is one part of a sample in which actives are shown more often than they occur.
Quantity Kind: activation (%)

> print(dat)
                                    molecule  quantity.kind  result.value
 1  Cc1ccc(OCC(=O)Nc2ccc(S(=O)(=O)Nc3ccccn3)cc2)cc1     activation           2.2
 2             COc1ccc(Nc2nc(=O)[nH]nc2C)cc1     activation           5.2
 3  CC(=O)Nc1ccc(CN2CCN(Cc3ccc(F)c(F)c3)C(CCO)C2)cc1 (configuration not stated)     activation           3.4
 4                 Clc1ccc(N/N=C/c2cccs2)nn1     activation           4.4
 5  O=C1CCC(=O)N1c1ccc(NCCc2ccccc2F)c([N+](=O)[O-])c1     activation             9
 6            O=C(Nn1cnc2ccccc2c1=O)c1ccccc1     activation          12.8
 7  COCCCNC(=S)NNC(=O)C(O)(c1ccccc1)c1ccccc1     activation          -2.3
 8                 COC(=O)C[n+]1cccc2ccccc21     activation           4.1
 9     CC(=O)Nc1ccc(OCC(=O)NCc2ccc(C)cc2)cc1     activation          -5.7
10     O=C(O)/C=C\C(=O)Nc1ccc(OCc2ccccc2)cc1     activation           5.5
11  Cc1ccc(/C=N/NC(=O)COc2ccccc2-c2ccccc2)cc1     activation           2.1
12  CC(Sc1cccc[n+]1[O-])C(=O)Nc1cccc(S(=O)(=O)N2CCOCC2)c1 (configuration not stated)     activation          -5.3

----------
Target: Peroxisome proliferator-activated receptor gamma (Homo sapiens)
Assay: enhancers of SRC-1 binding to PPARgamma – biochemical, primary screen (AID 631);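 further: 0% = DMSO and 100% = reference agonist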
Conditions: PPARgamma-SRC-1 coactivator recruitment biochemical assay; at 8 µM; stronger effect = higher value
Hit rate of the full screen: of about 200,000 compounds, about 810 (0.41%) were called active. What follows is part of a selection rich in actives, with near analogues and random picks from the rest.
Consider the following compounds and their measured activation readings.
Quantity Kind: activation (%)

> print(dat)
                                    compound  unit.tag  result.value
 1  CC(=O)c1ccc(-n2nnnc2SCC(=O)N2CCN(C(=O)c3ccco3)CC2)cc1         %           0.3
 2  CC(=O)c1ccc(S(=O)(=O)N2CCN(c3nc4c(C)c(C)ccc4cc3C#N)CC2)cc1         %          27.9
 3             Cc1cccc2cc(C#N)c(N3CCCC3)nc12         %           7.6
 4  Cc1ccc(NC(=O)CC2C(=O)N(Cc3ccccc3)C(=S)N2NC(=O)c2cccc(F)c2)c(C)c1 (configuration not stated)         %          -0.5
 5  CC(C)N(C(=O)Cn1cc(SCC(=O)N2CCCC2)c2ccccc21)C(C)C         %           5.8
 6  CC(C)C(NC(=O)C1CCC(C(C)(C)C)CC1)C(=O)NCCCN1CCCCC1 (configuration not stated)         %          13.2
 7  Cc1cccc(OCc2nnc(SCC(=O)N3CCN(C(=O)c4ccco4)CC3)n2C)c1C         %           5.6
 8           Cc1cccc(NC(=O)c2ccc3nsnc3c2)c1C         %           4.5
 9        CCOc1cnc(-c2c(-c3ccccc3Cl)noc2C)o1         %           9.5
10  COc1ccc(/C=C/C2=CC(C)(C)NC(=S)N2)c(OC)c1         %          -5.6
11  Cc1cc(N2C(=O)C(=O)/C(=C(/O)c3ccc(Cl)cc3)C2c2cccc(Br)c2)no1 (configuration not stated)         %          20.6
12      CC/C(=N\NC(=O)c1ccccc1Cl)c1ccc(Br)s1         %           4.2
13  CCOC(=O)N1CCC(NC(=O)COc2cc(=O)n(C)c3ccccc23)CC1         %          -0.7
14  Cn1c(=O)cc(SCC(=O)N2CCN(C(=O)c3ccco3)CC2)c2ccccc21         %          49.4
15      O=C(O)c1ccc(N/N=C/c2ccc3ncccc3c2)cc1         %           7.5
16  COc1ccc(C2/C(=C(/O)c3ccccc3)C(=O)C(=O)N2c2ncccn2)cc1OC (configuration not stated)         %           8.9
17  CCOC(=O)C1CCN(C(=O)Cn2cc(C#N)c3ccccc32)CC1         %          -2.2
18               Cc1ccc(C(=O)Cc2nnc(C)s2)cc1         %          -2.5
19    C=CCn1c(-c2sc(-c3ccccc3)nc2C)n[nH]c1=S         %           0.8
20  COc1cc(C2C(C(=O)c3ccc(C)o3)=C(O)C(=O)N2CCc2ccccc2)ccc1O (configuration not stated)         %           4.9
21         C/C(=N\NC(=O)OC(C)(C)C)c1ccc[nH]1         %          -0.7
22  COc1ccc(/C(O)=C2\C(=O)C(=O)N(Cc3ccco3)C2c2ccc(OC)cc2OC)cc1 (configuration not stated)         %             2
23                     Cc1ccc(Nc2ccccc2N)cc1         %           7.5
24   Cn1c(=O)cc(SCC(=O)N2CCCC2)c2cc(Cl)ccc21         %          53.4
25  CCCOc1ccc(C2C(C(=O)c3ccc(C)o3)=C(O)C(=O)N2CCCn2ccnc2)cc1 (configuration not stated)         %          25.1
26  COc1cccc2c1CCC(NC(C)=O)C2=O (configuration not stated)         %           0.5
27          Cc1cc(C)c2nc(N3CCCC3)c(C#N)cc2c1         %           3.7

----------
Molecular target: Peroxisome proliferator-activated receptor gamma (Homo sapiens) (UniProt P37231)
Sequence (P37231 whole entry, looked up): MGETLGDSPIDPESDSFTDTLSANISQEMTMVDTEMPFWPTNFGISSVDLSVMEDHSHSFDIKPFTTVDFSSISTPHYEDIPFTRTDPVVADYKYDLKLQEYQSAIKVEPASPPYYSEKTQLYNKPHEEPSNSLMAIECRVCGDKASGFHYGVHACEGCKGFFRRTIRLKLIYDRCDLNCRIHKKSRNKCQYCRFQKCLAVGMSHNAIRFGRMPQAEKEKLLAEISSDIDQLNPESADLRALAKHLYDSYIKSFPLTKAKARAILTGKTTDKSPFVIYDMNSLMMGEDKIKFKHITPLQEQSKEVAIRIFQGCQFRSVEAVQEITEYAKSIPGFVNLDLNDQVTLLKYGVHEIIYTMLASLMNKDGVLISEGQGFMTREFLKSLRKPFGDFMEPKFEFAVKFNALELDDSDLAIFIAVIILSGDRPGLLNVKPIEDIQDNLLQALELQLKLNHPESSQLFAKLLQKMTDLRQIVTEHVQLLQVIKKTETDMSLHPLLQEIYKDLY
Experiment: enhancers of SRC-1 binding to PPARgamma – biochemical, primary screen (AID 631);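 further: 0% = DMSO and 100% = reference agonist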
Conditions: PPARgamma-SRC-1 coactivator recruitment biochemical assay; at 8 µM
In all, about 200,000 compounds went through this assay and about 810 (0.41%) were called active. No stated cut-off is given here; in the data, active means activation above about 19%; inactive means the rest. The full list was thinned out, with actives kept by preference.
Possible outcomes: active, inactive

> print(dat)
                                    compound  category.label
 1     COc1ccc(-c2ccc(CNCCCN3CCOCC3)o2)cc1Cl        inactive
 2              COC(=O)NNC1=CC(=O)CC(C)(C)C1        inactive
 3  COC(=O)c1[nH]c2ccc(Br)cc2c1NC(=O)Oc1ccccc1          active
 4  Cc1cc(C)c2c(c1)cc(C)c1nnc(SCC(=O)Nc3cc(C)on3)n12          active
 5      CCS(=O)(=O)Nc1cc(C(=O)OC)ccc1C(=O)OC        inactive
 6    CCN(CC)CCCNC(=O)c1cc(-c2cccc(Cl)c2)on1        inactive
 7               COc1cccc(NC(=S)NCc2ccco2)c1        inactive
 8  COC(=O)c1[nH]c2ccccc2c1NS(=O)(=O)c1ccc(OC)cc1OC        inactive
 9  COc1ccc(NC(=O)c2ccccc2CC[N+](=O)[O-])cc1        inactive
10       CCOc1ccc(S(=O)(=O)Nc2ccncc2)c(C)c1C        inactive
11   Cc1ccc(-c2csc(SCC(=O)Nc3cc(C)on3)n2)cc1        inactive
12  COC(=O)c1[nH]c2ccccc2c1NC(=O)CN1CCCc2ccccc21        inactive
13  O=C1CN(C(=O)COC(=O)c2cnc(Cl)c(Cl)c2)c2ccccc2N1        inactive
14      O=C(Nc1nnc(Cc2ccc(Cl)cc2)s1)c1cccnc1        inactive
15  O=C(Cc1ccccc1)NNS(=O)(=O)c1ccc([N+](=O)[O-])cc1        inactive
16   COc1cccc(NC(=S)NC(=O)c2c(Cl)c(C)nn2C)c1          active
17     CN(CCc1cnn(C)c1)Cc1cn(C)nc1-c1ccccc1F        inactive
18       C=C(C)CNC(=S)N/N=C/c1ccccc1OCC(=O)O        inactive
19  COc1cccc(CNC(=O)CCC2CCCN(C(=O)c3ccoc3C)C2)c1 (centres undefined)        inactive
20             Cc1ccc(-c2nc(C)sc2CC(=O)O)cc1        inactive
21  O=C(O)C1C2CC2CN1C(=O)c1ccc(Cl)cc1Cl (centres undefined)        inactive
22              COc1cccc(NC(=S)NCc2ccccn2)c1        inactive
23  COC(=O)c1ccc(S(=O)(=O)c2ccc(C(=O)OC)s2)s1          active
24       COc1cc(CNC2CCCC2)c(Br)cc1OCc1ccccc1        inactive
